The entries below come with measured pIC50 values attached.
- measuredTarget: T1, human OT7T175 (metastin receptor) (human, UniProt Q969F8 1-398)
- T1 construct: expressed on CHO cells; also called hOT7T175; hOT7T175-expressed CHO cells
- T1 sequence (Q969F8 whole entry L364H): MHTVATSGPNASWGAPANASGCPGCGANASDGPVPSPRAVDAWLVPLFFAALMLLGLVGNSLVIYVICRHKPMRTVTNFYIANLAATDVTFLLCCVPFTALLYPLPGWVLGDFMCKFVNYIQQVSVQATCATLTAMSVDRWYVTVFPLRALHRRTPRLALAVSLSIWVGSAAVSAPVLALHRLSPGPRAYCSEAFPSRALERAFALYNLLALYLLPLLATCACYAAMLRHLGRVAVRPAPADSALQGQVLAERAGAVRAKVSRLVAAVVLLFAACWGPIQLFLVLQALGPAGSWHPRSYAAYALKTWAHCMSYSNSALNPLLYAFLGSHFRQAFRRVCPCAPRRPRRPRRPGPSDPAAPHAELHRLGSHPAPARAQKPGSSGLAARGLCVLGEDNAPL
- testDetails: competition with Cy-5 metastin (40-54) on hOT7T175-CHO cells, FMAT
pIC50: −log10 of the molar value. Starred links: 1 amine or outer side, 2 acyl side, 3 side chain; linkers in the order of their positions; H or OH if unused. Non-standard residues stand in square brackets, D forms with d. No end group written: not given here. *: point of attachment. Ala(2-Qui) = 2-quinolylalanine, O=C([C@H](Cc1ccc2ccccc2n1)N[*:1])[*:2]; indole‑3‑carbonyl = O=C(c1c[nH]c2ccccc12)*; Arg(Me) = CNC(=N)NCCC[C@H](N)C(=O)O; d4Pal = N[C@H](Cc1ccncc1)C(=O)O; Cha = N[C@@H](CC1CCCCC1)C(=O)O; amidino = N=C(N)*; azaGly = NNC(=O)O

{"binder": "[dY][dN][Cha]NSF[azaGly]L[Arg(Me)]F-NH2 (also called Compound No. 283) [[D-Tyr1,D-Asn2,Cha3,AzaGly7,Arg(Me)9]MS10]", "pIC50": 9.16}
{"binder": "YNWNSFGLR[Ala(2-Qui)]-NH2 (N-terminus assumed; SMILES CC(C)C[C@H](NC(=O)CNC(=O)[C@H](Cc1ccccc1)NC(=O)[C@H](CO)NC(=O)[C@H](CC(N)=O)NC(=O)[C@H](Cc1c[nH]c2ccccc12)NC(=O)[C@H](CC(N)=O)NC(=O)[C@@H](N)Cc1ccc(O)cc1)C(=O)N[C@@H](CCCNC(=N)N)C(=O)N[C@@H](Cc1ccc2ccccc2n1)C(N)=O, also called Compound No. 201) [[Ala(2-Qui)10]MS10]", "pIC50": 6.09}
{"binder": "{indole‑3‑carbonyl}-NSF[azaGly]L[Arg(Me)]F-NH2 (also called Compound No. 265) [des(1-3)-Indole-3-carbonyl-[AzaGly7,Arg(Me)9]MS10]", "pIC50": 7.02}
{"binder": "{D‑glucuronyl}-NSF[azaGly]L[Arg(Me)]F-NH2 (also called Compound No. 328) [des(1-3)-D-Glucuronyl-[AzaGly7,Arg(Me)9]MS10]", "pIC50": 6.33}
{"binder": "YNWNSYGLRF-NH2 (also called Compound No. 150) [[Tyr6]MS10]", "pIC50": 6.49}
{"binder": "[dY]N[d4Pal]NSF[azaGly]L[Arg(Me)]F-NH2 (also called Compound No. 302) [[D-Tyr1,D-Pya(4)3,AzaGly7,Arg(Me)9]MS10]", "pIC50": 8.11}
{"binder": "amidino-WNSF[azaGly]L[Arg(Me)]F-NH2 (SMILES CNC(=N)NCCC[C@H](NC(=O)[C@H](CC(C)C)NC(=O)NNC(=O)[C@H](Cc1ccccc1)NC(=O)[C@H](CO)NC(=O)[C@H](CC(N)=O)NC(=O)[C@H](Cc1c[nH]c2ccccc12)NC(=N)N)C(=O)N[C@@H](Cc1ccccc1)C(N)=O, also called Compound No. 273) [des(1-2)-Amidino-[AzaGly7,Arg(Me)9]MS10]", "pIC50": 6.52}
{"binder": "YNWNSFALRF-NH2 (also called Compound No. 50) [[Ala7]MS10]", "pIC50": 6.72}
{"binder": "[dY][dS]WNSF[azaGly]L[Arg(Me)]F-NH2 (N-terminus assumed; SMILES CNC(=N)NCCC[C@H](NC(=O)[C@H](CC(C)C)NC(=O)NNC(=O)[C@H](Cc1ccccc1)NC(=O)[C@H](CO)NC(=O)[C@H](CC(N)=O)NC(=O)[C@H](Cc1c[nH]c2ccccc12)NC(=O)[C@@H](CO)NC(=O)[C@H](N)Cc1ccc(O)cc1)C(=O)N[C@@H](Cc1ccccc1)C(N)=O, also called Compound No. 287) [[D-Tyr1,D-Ser2,AzaGly7,Arg(Me)9]MS10]", "pIC50": 8.64}
